system: U-251; assay: NCI tumour cell line growth inhibition, 48 h
Activity calls are given as the source filed them. Rule as the data show it: active = GI50 up to about 1.1 µM and inactive = higher.
Assignment: determine reported GI50 for the given compounds.

Worked set:
Cc1c(N2C(=O)CS(=O)(=O)C2c2cccc(Oc3ccccc3)c2)c(=O)n(-c2ccccc2)n1C (stereo unspecified); > 100 µM (inactive)
CCOC(=O)CCC(NC(=O)Cc1ccc(Oc2nc3ccccc3nc2-c2cccs2)cc1)C(=O)OCC (stereo unspecified); 11.4 µM (inactive)
O=C(NCCc1ccc(F)cc1)c1cc(/C=C/c2cc(O)ccc2O)ccc1O; 2.1 µM (inactive)
O=C(O)c1c(-c2nccc3ccccc23)[nH]c(-c2ccccc2)c1S(=O)(=O)O; > 100 µM (inactive)
CCOC(=O)C1=C(C)NC(C)=C(C(=O)OCC)C1c1ccc(Cl)cc1; 16.8 µM (inactive)

Could you now consider this next compound?
# input Requested field: GI50. Item: O=c1onc2n1-c1cc(Cl)ccc1C(=S)N1CSCC21 (stereo unspecified)
# output > 100 µM (inactive)

###

system: RXF 393; experiment: NCI tumour cell line growth inhibition, 48 h
The source made the active and inactive calls. Rule as the data show it: active = GI50 up to about 1.1 µM and inactive = higher.
Pick one: yes (1) = active, no (0) = inactive

These solved cases illustrate the format of a correct answer.
COC(=O)CCN(CCC(=O)OC)C1CC1; no (0)
Cc1ccc(N2C(=O)C3C=CC(n4[nH]c(=O)n(Cc5ccccc5)c4=O)CC3C2=O)cc1 (centres undefined); no (0)
COC(=O)c1cc(C)ccc1CC(Cc1cccc(C)c1)C(=O)OC (centres undefined); no (0)
C[C@H]1C=C2C(=O)O[C@H]3CC[C@@H](C1)[C@@]23O; no (0)
FC(F)(F)c1cc(Cl)cnc1N/N=C(/c1ccccc1)c1ccccn1; no (0)
COc1ccc2oc3c(OC)c(OC)c(OC)cc3c(=O)c2c1; no (0)

# input Identify the outcome logged in this assay for the compound shown: COc1cccc2cc(C(N)=O)c(=N)oc12
# output no (0)

# input Moving on to the next compound: CCCCCCCCCC(=O)N[C@@H](c1ccco1)[C@@H](O)C(=O)O[C@H]1C[C@@]2(O)[C@@H](OC(=O)c3ccccc3)[C@@H]3[C@]4(OC(C)=O)CO[C@@H]4C[C@H](O)[C@@]3(C)C(=O)[C@H](OC(C)=O)C(=C1C)C2(C)C
# output yes (1)

# input Moving on to the next compound: CCC1(O)C(=O)OCc2c1cc1n(c2=O)Cc2cc3ccccc3nc2-1 (centres undefined)
# output yes (1)

###

tested on: SK-OV-3; experiment: NCI tumour cell line growth inhibition, 48 h
Active and inactive are the calls of the source. Rule as the data show it: active = GI50 up to about 1.1 µM and inactive = higher.
parameterMeasured: GI50

Worked set:
C=Cc1cc2c(cc1O)CC[C@@H]1[C@@H]2CC[C@]2(C)[C@@H](O)CC[C@@H]12; 5.79 µM (inactive)
O=C(O)c1ccc(/N=C(\C(=N\c2ccc(C(=O)O)cc2)c2ccccc2)c2ccccc2)cc1; > 100 µM (inactive)
O=C1Nc2ccccc2Nc2ccncc21; > 100 µM (inactive)

Please give GI50 for each item listed below.
1. [O-][n+]1onc2c1CCC(=N\O)/C2=N/Nc1ccccc1
2. O=c1c(C(c2ccc3c(c2)Cc2ccccc2-3)c2c(O)oc3ccccc3c2=O)c(O)oc2ccccc12
3. CN(C)CCNc1ccc2nnn3c4ccc(Cl)cc4c(=O)c1c23
4. CCC12C=CCN3CCC4(C(=C(C(=O)OC)[C@@H]1O)Nc1ccccc14)C32 (stereo not given in full)
5. CCN(CC)CCNCc1cc(Cl)cc2c1OCOC2
6. CC(CO)CCC(O)C(C)(O)C1CCC2(O)C3=CC(=O)C4CC(O)C(O)CC4(C)C3CCC12C (stereo not given)
7. COc1cccc2c1OC(c1cccc3ccccc13)C([N+](=O)[O-])=C2 (stereo not given)

# output
["> 100 µM (inactive)", "31.3 µM (inactive)", "9.89 µM (inactive)", "2.43 µM (inactive)", "> 10 µM (inactive)", "> 100 µM (inactive)", "3.11 µM (inactive)"]

Please give GI50 for each item listed below.
1. COC(=O)c1cc(C)ccc1CC(Cc1cccc(C)c1)C(=O)OC (stereo not given)
2. N#CCCN(CCN(C(=O)Nc1ccccc1)c1ccccc1)C(=O)Nc1ccccc1
3. CC(CCC[C@H](C)CO)[C@H]1[C@@H](O)C(O)C2[C@@H]3C[C@@H](O)C4(O)C[C@@H](O)CC[C@]4(C)C3CC[C@@]21C (stereo not given in full)

# output
["4.06 µM (inactive)", "> 100 µM (inactive)", "> 100 µM (inactive)"]

Please give GI50 for each item listed below.
1. CCNC(=O)O/N=C1\CCC2[C@@H]3CC=C4C[C@@H](OC(=O)NCC)CC[C@]4(C)C3CC[C@]12C (stereo not given in full)
2. CO/N=C1/c2sccc2[C@H](NC(=O)CNC(=O)OC(C)(C)C)[C@@H]1O
3. S=c1sc2cscc2s1
4. C[C@]12CCC(=O)C(O)=C1CC[C@@H]1C2CC[C@]2(C)NC(=O)CCC12 (stereo not given in full)
5. COc1ccc2[nH]c(Cl)c(/C=C3/C(=O)Nc4cc(C)c(OC)cc43)c2c1

# output
7.82 µM (inactive)
> 100 µM (inactive)
27.5 µM (inactive)
> 100 µM (inactive)
2.52 µM (inactive)

Please give GI50 for each item listed below.
1. COC(=O)[C@H](C)N(C)C(=O)[C@H](C)N1[C@@H](c2ccccc2)COC1(C)C
2. CC(=O)OCSc1ncnc2c1ncn2CN1CCOCC1

# output
1. > 100 µM (inactive)
2. 2.01 µM (inactive)
